Data provenance is patent US5462926A.

- test-system: somatostatin receptors (Rattus norvegicus)
- Construct: endogenous in cells; host or cells: rat AR 42J pancreatic acinar tumor cell membranes
- Sequence (P30680 whole entry): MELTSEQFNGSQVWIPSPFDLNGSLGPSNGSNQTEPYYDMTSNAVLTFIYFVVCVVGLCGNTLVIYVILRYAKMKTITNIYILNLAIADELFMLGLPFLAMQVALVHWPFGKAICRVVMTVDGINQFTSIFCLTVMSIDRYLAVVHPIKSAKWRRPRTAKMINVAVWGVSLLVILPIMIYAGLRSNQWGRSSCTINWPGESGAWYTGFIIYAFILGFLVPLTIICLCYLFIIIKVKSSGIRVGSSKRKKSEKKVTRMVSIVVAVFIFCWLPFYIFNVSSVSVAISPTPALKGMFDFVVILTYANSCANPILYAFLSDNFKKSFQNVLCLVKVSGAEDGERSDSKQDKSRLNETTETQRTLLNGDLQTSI
- assay-comment: Somatostatin membrane receptor assay, 125I-[Tyr11]SS-14, AR 42J cell membranes
- Type: binding
- stated-conditions: Cheng method; table prints no unit (b360 gives nM for a Table 4 value); read-out: affinity, 125I-[Tyr11]SS-14, AR 42J Cell Membranes (somatostatin receptors)
Where a SMILES comes first, the peptide text is derived from it. Bridges are numbered along the chain shown (N, C = ends). [ ]: non-standard residue; d: D form. 2Nal = N[C@@H](Cc1ccc2ccccc2c1)C(=O)O; d2Nal = N[C@H](Cc1ccc2ccccc2c1)C(=O)O
property: Ki
Don't forget the unit after the number, please.

Ask | Reported Ki, compound NCCCC[C@@H]1NC(=O)[C@@H](Cc2c[nH]c3ccccc23)NC(=O)[C@H](Cc2ccc(O)cc2)NC(=O)[C@@H](NC(=O)[C@H](N)Cc2ccc3ccccc3c2)CSSC[C@@H](C(=O)N[C@@H](Cc2ccc3ccccc3c2)C(N)=O)NC(=O)[C@H](Cc2ccccc2)NC1=O [Analog #13] (H-[d2Nal]CY[dW]KFC[2Nal]-NH2; disulfide 2-7) : ____
Reply | 194 nM

Ask | Reported Ki, compound CC(C)[C@@H]1NC(=O)[C@H](Cc2c[nH]cn2)NC(=O)[C@@H](Cc2c[nH]c3ccccc23)NC(=O)[C@H](Cc2ccc(O)cc2)NC(=O)[C@@H](NC(=O)[C@H](N)Cc2ccc3ccccc3c2)CSSC[C@@H](C(=O)N[C@@H](Cc2ccc3ccccc3c2)C(N)=O)NC1=O [Analog #14] (H-[d2Nal]CY[dW]HVC[2Nal]-NH2; disulfide 2-7; N-terminus assumed) : ____
Reply | 1870 nM

Ask | Reported Ki, compound CC(C)[C@@H]1NC(=O)[C@H](CCCCN)NC(=O)[C@@H](Cc2c[nH]c3ccccc23)NC(=O)[C@H](Cc2ccc(O)cc2)NC(=O)[C@H](NC(=O)[C@H](N)Cc2ccc3ccccc3c2)CSSC[C@@H](C(=O)N[C@@H](Cc2ccc3ccccc3c2)C(N)=O)NC1=O [Analog #10] (H-[d2Nal][dC]Y[dW]KVC[2Nal]-NH2; disulfide 2-7) : ____
Reply | 91 nM

Ask | Reported Ki, compound CC(C)[C@@H]1NC(=O)[C@H](CCCCN)NC(=O)[C@@H](Cc2c[nH]c3ccccc23)NC(=O)[C@H](Cc2ccc(O)cc2)NC(=O)[C@@H](NC(=O)[C@H](N)Cc2ccccc2)CSSC[C@@H](C(=O)N[C@@H](Cc2ccc3ccccc3c2)C(N)=O)NC1=O [Analog #4] (H-[dF]CY[dW]KVC[2Nal]-NH2; disulfide 2-7) : ____
Reply | 0.24 nM
